Task for the reader: assign each of the following compounds its reported Selectivity MOR/KOR.
target: κ-opioid receptor (KOR) (Homo sapiens, UniProt P41145); format: binding
Sequence (P41145 whole entry): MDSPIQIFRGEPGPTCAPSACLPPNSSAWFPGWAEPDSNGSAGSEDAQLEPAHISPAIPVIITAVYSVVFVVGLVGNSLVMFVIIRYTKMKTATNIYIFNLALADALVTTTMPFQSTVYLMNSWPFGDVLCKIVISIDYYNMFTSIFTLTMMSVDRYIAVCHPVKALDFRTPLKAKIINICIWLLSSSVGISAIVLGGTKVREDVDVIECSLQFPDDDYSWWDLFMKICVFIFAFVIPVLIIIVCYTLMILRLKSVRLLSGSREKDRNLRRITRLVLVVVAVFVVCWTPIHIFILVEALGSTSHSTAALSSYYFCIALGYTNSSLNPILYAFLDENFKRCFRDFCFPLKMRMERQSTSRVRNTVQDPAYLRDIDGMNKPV

Guide cases for Selectivity MOR/KOR, answers given:
SMILES_TEXT	RECORDED_VALUE
C=C(C)C(=O)O[C@H]1C[C@@H](C(=O)OC)[C@]2(C)CC[C@H]3C(=O)O[C@H](c4ccoc4)C[C@]3(C)[C@H]2C1=O	>293
COC(=O)[C@@H]1C[C@H](OC(=O)/C=C/c2ccccc2OC)C(=O)[C@H]2[C@@]1(C)CC[C@H]1C(=O)O[C@H](c3ccoc3)C[C@]21C	>154
COC(=O)[C@@H]1C[C@H](OC(=O)/C=C/c2cccnc2)C(=O)[C@H]2[C@@]1(C)CC[C@H]1C(=O)O[C@H](c3ccoc3)C[C@]21C	<0.03
COC(=O)[C@@H]1C[C@H](OC(=O)/C=C/c2ccccc2C(F)(F)F)C(=O)[C@H]2[C@@]1(C)CC[C@H]1C(=O)O[C@H](c3ccoc3)C[C@]21C	>77

Continue with the compound presented below.
Exam item: Selectivity MOR/KOR for `COC(=O)[C@@H]1C[C@H](OC(=O)/C=C/c2ccccc2[N+](=O)[O-])C(=O)[C@H]2[C@@]1(C)CC[C@H]1C(=O)O[C@H](c3ccoc3)C[C@]21C` ?
Marked response: >67
